Test: Cytotoxicity against human HeLa cells assessed as inhibition of growth at 1000 ug/mL after 24 hrs by CCK8 assay relative to control
Assay type: cell-based
Conditions: read-out: GI

| smiles.entry | inhibition at 24 h, 1000 ug/mL |
| --- | --- |
| COc1ccc(CN(CCN(Cc2ccc(OC)cc2)Cc2cccc(C(=O)O)n2)Cc2cccc(C(=O)O)n2)cc1 | < 50% |
| O=C(O)c1cccc(CNCCNCc2cccc(C(=O)O)n2)n1 | < 50% |

src = ChEMBL document CHEMBL4387701
